ASSAY TEXT: logP determination by HPLC (formic acid method)
Assay type: physicochemical
PROTOCOL CONDITIONS: reversed-phase HPLC column (C18), pH 3.4, HPLC on reversed-phase column (C18), acidic range (pH 3.4), 55° C.; read-out: logP (HCOOH)
Field 'label' (enum: Condition met / Condition not met). Set to Condition met when chromatographic logP is strictly under 2; else Condition not met.

Some entries whose results are on file:
> print(dat)
                                   compound          group
1  Cc1nc(-c2cccnc2)sc1-c1ccnc(-c2ccccn2)n1 [compound 29]  Condition met
2  Cc1nc(-c2cccnc2)sc1-c1ccnc(Cn2cncn2)n1 [compound 69]  Condition met

QUERY: Bench note: check whether Cc1nc(-c2cccnc2)sc1-c1ccn(C(=O)NCC(F)(F)F)n1 [compound 128] shows chromatographic logP below 2
RESULT: Condition not met

QUERY: A record lists CCCNC(=O)n1ccc(-c2sc(-c3cccnc3)nc2C)n1 [compound 132] . Is its chromatographic logP below 2?
RESULT: Condition not met

QUERY: API: query returns whether the compound falls strictly under 2 in chromatographic logP. Query: Cc1nc(-c2cccnc2)sc1-c1ccn(-c2nnc(C3CCCC3)s2)n1 [compound 107]
RESULT: Condition not met

QUERY: Lab log: compare recorded chromatographic logP with 2; is it strictly lower for Cc1nc(-c2cccnc2)sc1-c1cccc(-n2nc(C(F)(F)F)n(C)c2=O)n1 [compound 156] ?
RESULT: Condition not met

QUERY: For Cc1nc(-c2cccnc2)sc1-c1ccnc(-c2ncccn2)n1 [Preparation Example 1] , is the recorded chromatographic logP below the cut-off of 2?
RESULT: Condition met

---

ASSAY TEXT: logP determination by HPLC (formic acid method)
Assay type: physicochemical
PROTOCOL CONDITIONS: reversed-phase HPLC column (C18), pH 3.4, HPLC on reversed-phase column (C18), acidic range (pH 3.4), 55° C.; read-out: logP (HCOOH)
MEASURED QUANTITY: chromatographic logP
Answers are plain numbers.

Previously resolved entries follow.
> print(dat)
                                   compound     measured.quantity  measurement
1  CN1CCOC(c2cccc(-c3cnc(-c4cccnc4)s3)n2)=N1 [compound 181]  chromatographic logP         1.82
2  Cc1nc(-c2cccnc2)sc1-c1nc(C(=O)N(C)CC(F)(F)F)cs1 [compound 238]  chromatographic logP         2.53
3  Cc1nc(-c2cccnc2)sc1-c1ccn(-c2nnc(C3CC3)s2)n1 [compound 86]  chromatographic logP         2.72
4  Cn1nc(-c2cccnc2)cc1-c1ccn(-c2ncccn2)n1 [Preparation Example 11]  chromatographic logP            1

Would you mind listing chromatographic logP for each of the following compounds?
1. Cc1nc(-c2cccnc2)sc1-c1ccn(-c2nnc(C3CCC3)s2)n1 [compound 106]
2. Cc1nc(-c2cccnc2)sc1-c1ccn(-c2cnccn2)n1 [Preparation Example 2]
3. Cc1nc(-c2cccnc2)sc1-c1nc(-c2nnc(C(F)(F)F)n2C)no1 [compound 91]
4. Cc1nc(-c2cccnc2)sc1-c1cccc(C2=NOCCO2)c1 [compound 101]
5. Cn1nc(-c2cccnc2)cc1C1=NN(c2ncccn2)CCO1 [compound 168]

RESULT:
1: 3.42; 2: 2.3; 3: 2.41; 4: 2.42; 5: 0.95

---

ASSAY TEXT: logP determination by HPLC (formic acid method)
Assay type: physicochemical
PROTOCOL CONDITIONS: reversed-phase HPLC column (C18), pH 3.4, HPLC on reversed-phase column (C18), acidic range (pH 3.4), 55° C.; read-out: logP (HCOOH)
Please respond with reported chromatographic logP for every item in the list.
Give bare numbers.

Examples from the recorded data:
> print(dat)
                                   compound  measurement
1   c1cncc(-c2ncc(-c3cccc(-n4cccc4)n3)s2)c1         3.13
2   Cc1nc(-c2cccnc2)sc1-c1ccnc(-c2cnccn2)n1         1.59
3         CCOc1ccc(-c2cc(-c3cccnc3)nn2C)cn1         1.46
4  Cc1nc(-c2cccnc2)sc1-n1ccc(-c2ccccc2C(F)(F)F)n1         3.94
5  Cc1nc(-c2cncc(F)c2)sc1-c1ccnc(-c2ncccn2)n1         1.63
6             c1cncc(-c2nnc(-c3cccnc3)s2)c1         1.07
7  Cc1nc(-c2cccnc2)sc1-c1nc(C(=O)N2CCCC2)cs1         2.05
8  c1cnc(-c2cccc(-c3cnc(-c4cncnc4)s3)n2)nc1         1.54

Kindly give each listed record's chromatographic logP.
1. c1cnc(-c2nccc(-c3nnc(-c4cccnc4)s3)n2)nc1
2. Cc1nc(-c2cccnc2)sc1-c1nc(-c2ccncc2)no1
3. Cc1nc(-c2cccnc2)sc1-n1ccc([N+](=O)[O-])n1
4. c1cncc(-c2ncc(-c3cccc(-n4ccnc4)n3)s2)c1
5. Cc1nc(-c2cccnc2)sc1-n1ccc(-c2ccccc2F)n1
6. Cc1nc(-c2cccnc2)sc1-c1ccn(-c2nnc(C(F)(F)F)n2C)n1
7. Cc1nc(-c2cccnc2)sc1-c1nc(C(=O)N2CCOCC2)cs1
8. Cc1nc(-c2cccnc2)sc1-c1ccn(C(=O)NCC2CC2)n1

RESULT:
1: 1.07; 2: 2.19; 3: 1.92; 4: 0.93; 5: 3.33; 6: 2.27; 7: 1.66; 8: 2.57

---

Please go through the items and note down their pest or weed control at 500 g/ha.
Test system: green peach aphid (Myzus persicae)
ASSAY TEXT: Myzus test (spray treatment)
Assay type: in vivo
PROTOCOL CONDITIONS: foliar, application rate of 500 g/ha, sprayed Chinese cabbage leaf discs, read-out: activity (effect in %, aphids killed)

Solved entries (count: 3):
> print(dat)
                                   compound                 measured.quantity  measurement
1  Cc1nc(-c2cccnc2)sc1C1=NCC(c2ccccn2)O1 (stereo not shown) [compound 16]  pest or weed control at 500 g/ha        ≥ 80%
2  Cc1nc(-c2cccnc2)sc1-c1nc(C(F)(F)F)co1 [compound 75]  pest or weed control at 500 g/ha        ≥ 80%
3  Cc1nc(-c2cccnc2)sc1-c1cccc(C2=NOCCO2)c1 [compound 101]  pest or weed control at 500 g/ha        ≥ 80%

Batch: pest or weed control at 500 g/ha for all items listed.
1. Cc1nc(-c2cccnc2)sc1C1=NN(c2ncccn2)CCO1 [Preparation Example 7]
2. Cc1nc(-c2cccnc2)sc1-c1ccn(C(=S)NC2CC2)n1 [compound 104]
3. Cc1nc(-c2cccnc2)sc1-c1ccnc(-n2[nH]c(C(F)(F)F)cc2=O)n1 [compound 66]
4. Cc1nc(-c2cccnc2)sc1-c1ccn(-c2nnc(C(F)Cl)s2)n1 (stereo not shown) [compound 110]
5. c1cnc(-n2ccc(-c3nnc(-c4cccnc4)s3)n2)nc1 [compound 160]
6. Cc1nc(-c2cccnc2)sc1-c1cccc(N2CC(C)OC(C)C2)n1 (stereo not shown) [compound 98]
7. CCOCCCNC(=O)n1ccc(-c2sc(-c3cccnc3)nc2C)n1 [compound 123]
8. CNC(=S)n1ccc(-c2sc(-c3cccnc3)nc2C)n1 [compound 137]

RESULT:
1: ≥ 80%; 2: ≥ 80%; 3: ≥ 80%; 4: ≥ 80%; 5: ≥ 80%; 6: ≥ 80%; 7: ≥ 80%; 8: ≥ 80%

Record pest or weed control at 500 g/ha per entry; entries follow.
1. Fc1cncc(-c2ncc(-c3cccc(-c4ncccn4)n3)s2)c1 [compound 153]
2. Cc1cc(-c2nccc(-c3sc(-c4cccnc4)nc3C)n2)n(C)n1 [compound 44]
3. COCCNC(=O)n1ccc(-c2sc(-c3cccnc3)nc2C)n1 [compound 126]
4. Cn1nc(-c2cccnc2)cc1-c1ccnc(-c2ccccn2)n1 [compound 171]
5. Cc1nc(-c2cccnc2)sc1-n1ccc(-c2ccco2)n1 [compound 40]
6. Cc1nc(-c2cccnc2)sc1-c1nc(C(C)C)no1 [compound 62]
7. Cc1nc(-c2cccnc2)sc1-c1cc(C(F)(F)F)ncn1 [compound 111]
8. FC(F)(F)c1cccc(-c2cnc(-c3cccnc3)s2)n1 [Ex. No. 49]

RESULT:
1: ≥ 80%; 2: ≥ 80%; 3: ≥ 80%; 4: ≥ 80%; 5: ≥ 80%; 6: ≥ 80%; 7: ≥ 80%; 8: ≥ 80%

---

ASSAY TEXT: logP determination by HPLC (formic acid method)
Format: physicochemical
PROTOCOL CONDITIONS: reversed-phase HPLC column (C18), pH 3.4, HPLC on reversed-phase column (C18), acidic range (pH 3.4), 55° C.; read-out: logP (HCOOH)
Experimental: 1) Description of the method for determining the logP values (formic acid method) The logP values given in the table were determined in accordance with EEC Directive 79/831 Annex V.A8 by HPLC (High Performance Liquid Chromatography) on a reversed-phase column (C18). Temperature: 55° C. Mobile phases for the determination in the acidic range (pH 3.4): Mobile phase A: Acetonitrile+1 ml of formic acid/litre. Mobile phase B: water+0.9 ml of formic acid/litre. […]
Label rule, in plain words: chromatographic logP of 3 and up is y, under 3 is n.

These recorded examples may help you get a feel for the data.
> print(dat)
                                   molecule  group
1  COC(C)(C)CNC(=O)n1ccc(-c2sc(-c3cccnc3)nc2C)n1      n
2           Cn1nc(-c2cccnc2)cc1-c1cncc(F)c1      n

QUERY: Textbook exercise: given the entry CCC(COC)NC(=O)n1ccc(-c2sc(-c3cccnc3)nc2C)n1 (centres unmarked) , state whether its chromatographic logP is greater than or equal to 3.
RESULT: n

QUERY: Could you tell me if the measured chromatographic logP of Cc1nc(-c2cccnc2)sc1-c1ccn(C(=O)NC(C)C)n1 reaches 3 or more?
RESULT: n

QUERY: Determine whether measured chromatographic logP meets or exceeds 3 for Cc1nc(-c2cccnc2)sc1-c1csc(-c2cccnc2)n1
RESULT: n

QUERY: Item Cc1nc(-c2cccnc2)sc1-c1ccn(C(=S)NCC(C)C)n1 with chromatographic logP of 3 or above?
RESULT: y
